Reference for the values: PubChem BioAssay (Tox21)

# measurementNotes: cAMP Responsive Elements (CRE) small molecule agonists, cell-based qHTS assay: qHTS cell viability counter screen (AID 2060914);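 note: viability read after 3 h of compound exposure; nearly all actives have a fitted effect of over 50% in size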
# setupConditions: CRE-bla HEK293T viability, CellTiter-Glo luminescence, 5 h; series mostly up to 92.4 µM
Results filed as inconclusive are left out. Calls of active or inactive are those of the source. Calls come from the whole dose curve; as a rule, active = well fitted cell-killing curve with a large enough effect in the repeat runs; inconclusive = weak or mixed curves, or effect the other way; inactive = flat fitted curve, though single readings scatter.
Labels: active, inactive

compound | classLabel
CS(=O)(=O)c1cc(C(F)(F)F)ccc1C(=O)c1cnoc1C1CC1 | inactive
O=c1[nH]oc2c1CCNC2 | inactive
CC(C)NCC(O)c1ccc([N+](=O)[O-])cc1 (stereo not drawn) | inactive
O=c1[nH]c2ccccc2n1C1CCN(CCCC(c2ccc(F)cc2)c2ccc(F)cc2)CC1 | inactive
C=CC(=O)N(C)C | inactive
O=C(CCl)C(Cl)Cl | inactive
C[As+](C)(C)CC(=O)[O-] | inactive
CCCCCCCCCCCC[N+](C)(C)CCOc1ccccc1 | active
CN(C)N=O | inactive
CC(Cl)(Cl)[N+](=O)[O-] | inactive
C#CCOC(=O)/C=C(C)/C=C/CC(C)CCCC(C)C (stereo not drawn) | inactive
CCOc1cc(OP(=S)(OC)OC)nc(CC)n1 | inactive
CCCN(CCC)c1c([N+](=O)[O-])cc(C(F)(F)F)cc1[N+](=O)[O-] | inactive

----------
# measurementNotes: cAMP Responsive Elements (CRE) small molecule antagonists, cell-based qHTS assay: qHTS cell viability counter screen (AID 2060913); note: nearly all actives have a fitted effect of over 40% in size
# setupConditions: CRE-bla HEK293T viability, CellTiter-Glo luminescence, 5 h; series mostly up to 92.4 µM
Inconclusive results are not listed. Active and inactive are the calls of the source. The call rests on the fitted dose curve; in most records, active means well fitted cell-killing curve with a large enough effect in the repeat runs; inconclusive means weak or mixed curves, or effect the other way; inactive means flat fitted curve, though single readings scatter.
Labels: YES for active, NO for inactive

compound | classLabel
C=CCC1(C(C)CC)C(=O)NC(=O)NC1=O (stereo unspecified) | NO
CC(C)(C)NC[C@H](O)c1ccc(O)cc1Cl | NO
OC[C@@H](O)[C@H]1O[C@@H]2O[C@H](C(Cl)(Cl)Cl)O[C@@H]2[C@H]1O | NO
CCCCOC(=O)COC(=O)c1ccccc1C(=O)OCCCC | NO
CCCN1CCC[C@@H]2Cc3[nH]ncc3C[C@H]21 | NO
C=CC(=O)OCC | NO
COC(N)=O | NO
CCN(CC)c1nc(C)cc(OP(=S)(OC)OC)n1 | NO
NC(=O)c1cc([N+](=O)[O-])cc([N+](=O)[O-])c1 | NO
Cl/C=C/Cl | NO
CC(=O)Nc1cc([As](=O)(O)O)ccc1O | NO
CCCN(CC1CC1)c1c([N+](=O)[O-])cc(C(F)(F)F)cc1[N+](=O)[O-] | NO
C=CC(=O)OCCCCOC(=O)C=C | NO
CCCCC/C=C\C/C=C\C/C=C\C/C=C\CCCC(=O)NCC(=O)O | NO
COP(N)(=S)OC | NO
COC(=O)c1cc(Oc2ccc(Cl)cc2Cl)ccc1[N+](=O)[O-] | NO
COCC(=O)N(c1c(C)cccc1C)N1CCOC1=O | NO
CCCCOC(=O)c1ccccc1C(=O)OCCCC | NO
C[C@]12CC[C@H]3[C@@H](CCC4=CC(=O)CC[C@@H]43)[C@@H]1CC[C@@H]2O | NO
N#Cc1ccccn1 | NO
CCCCc1ccccc1 | NO
Cc1cccc(C)c1N | NO
O=C(O)C(Br)CBr (stereo unspecified) | NO
NC(=O)OCCCc1ccccc1 | NO
CC(C)=CC1C(C(=O)OCc2coc(Cc3ccccc3)c2)C1(C)C (stereo unspecified) | NO
COC12CC[C@@]3(C[C@@H]1C(C)(O)C(C)(C)C)[C@H]1Cc4ccc(O)c5c4[C@@]3(CCN1CC1CC1)[C@H]2O5 (stereo partly specified) | YES
CC(=O)[O][Sn]([c]1ccccc1)([c]1ccccc1)[c]1ccccc1 | YES
O=c1c(C2CC(c3ccc(-c4ccc(Br)cc4)cc3)Cc3ccccc32)c(O)sc2ccccc12 (stereo unspecified) | NO
CCN(CC)C1CCCCC1 | NO
N#CCc1ccc(Cl)cc1 | NO
c1ccc2c(c1)sc1ccccc12 | NO
COc1ccc(-c2ccccc2)cc1NNC(=O)OC(C)C | NO
C[N+](=O)[O-] | NO
COC(=O)NS(=O)(=O)c1ccc(N)cc1 | NO
c1ccoc1 | NO
CCOP(=S)(OCC)SCn1c(=O)oc2cc(Cl)ccc21 | NO
OCCSCSCCO | NO
ClC1=C(Cl)[C@]2(Cl)[C@H]3[C@H]([C@@H]4C=C[C@H]3C4)[C@@]1(Cl)C2(Cl)Cl | NO
N#Cc1ccc(O)cc1 | NO
CCC1(c2ccc(N)cc2)CCC(=O)NC1=O (stereo unspecified) | NO
Cn1cc(C2=C(c3cn(C4CCN(Cc5ccccn5)CC4)c4ccccc34)C(=O)NC2=O)c2ccccc21 | NO
CN(C)c1ccc(C(=O)c2ccc(N(C)C)cc2)cc1 | NO
C[C@]12CC[C@H]3[C@@H](CCC4=CC(=O)CC[C@@]43C)[C@@H]1CC[C@@H]2O | NO
Oc1ccc(Cl)cc1 | NO
CC(Br)C(=O)O (stereo unspecified) | NO
C[C@H]1CCC[C@H](O)CCCCCc2cc(O)cc(O)c2C(=O)O1 | NO
CCOP(=S)(OCC)SCS(=O)(=O)CC | NO
COC(=O)c1ccccc1S(=O)(=O)NC(=O)Nc1nc(C)nc(OC)n1 | NO
N#Cc1cccnc1 | NO
ClCOCCl | NO
O=C(O)CC(O)(CC(=O)O)C(=O)O | NO
NNCCO | NO
ClCCN1CCOCC1 | NO
Clc1cnc(Oc2ccc(Oc3ncc(Cl)cc3Cl)cc2)c(Cl)c1 | NO
CCOC(=S)S | NO
COC(=O)c1ccc(CBr)cc1 | NO

----------
# measurementNotes: cAMP Responsive Elements (CRE) small molecule agonists, cell-based qHTS assay: qHTS cell viability counter screen (AID 2060914);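 note: viability read after 3 h of compound exposure; nearly all actives have a fitted effect of over 50% in size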
# setupConditions: CRE-bla HEK293T viability, CellTiter-Glo luminescence, 5 h; series mostly up to 92.4 µM
Results filed as inconclusive are left out. The source made the active and inactive calls. Calls come from the whole dose curve; as a rule, active = well fitted cell-killing curve with a large enough effect in the repeat runs; inconclusive = weak or mixed curves, or effect the other way; inactive = flat fitted curve, though single readings scatter.

compound | outcome
CC[C@H]1C[C@@H]2C[C@H]3c4[nH]c5ccc(OC)cc5c4CCN(C2)[C@@H]13 | inactive
CN(C)C(=O)Cl | inactive
OC(Cc1ccccc1Cl)(Cn1[nH]cnc1=S)C1(Cl)CC1 (configuration not stated) | inactive
O=C(CBr)Nc1ccc(Cl)cc1C(=O)c1ccccc1F | inactive
C[C@]12CC[C@H]3[C@@H](CCC4=CC(=O)CC[C@@H]43)[C@@H]1CC[C@@H]2OC(=O)CCc1ccco1 | inactive
CCC/C=N/O | inactive
O=C(O)CC[N+](=O)[O-] | inactive
CCOC(=O)C1(c2ccccc2)CCN(CCc2ccc(N)cc2)CC1 | inactive
CCCSP(=O)(OCC)SCCC | inactive
CN1C2CCC(C)(C)C1CC(OC(=O)C(O)(c1cccs1)c1cccs1)C2 (configuration not stated) | inactive
O=NN1CCOCC1 | inactive
N#CC(c1ccccc1)c1ccccc1 | inactive
CC1(C)CON(Cc2ccccc2Cl)C1=O | inactive
CCOP(=S)(OCC)O/N=C(\C#N)c1ccccc1 | inactive
C#CCN(C)[C@H](C)Cc1ccccc1 | inactive
O=S(=O)(c1ccc(O)cc1)c1ccc(O)cc1 | inactive
C=C1C[C@@H]2[C@H](CC[C@]3(C)C(=O)CC[C@@H]23)[C@@]2(C)C=CC(=O)C=C12 | inactive
CC(C)N1C(=O)c2ccccc2NS1(=O)=O | inactive
C#CCOS(=O)OC1CCCCC1Oc1ccc(C(C)(C)C)cc1 (configuration not stated) | inactive
CNC(=O)Oc1cccc2c1OC(C)(C)O2 | inactive
Cc1ncc2n1-c1ccc(Cl)cc1C(c1ccccc1F)=NC2 | inactive
Nc1cnn(-c2ccccc2)c(=O)c1Cl | inactive
Oc1c(I)cc(I)cc1I | inactive
CCOP(=S)(OCC)SCSc1cc(Cl)ccc1Cl | inactive
CC(C)N(CCC(C(N)=O)(c1ccccc1)c1ccccn1)C(C)C (configuration not stated) | inactive
O=C1CC(=O)NC(=O)N1 | inactive
C=CCCl | inactive

----------
# measurementNotes: cAMP Responsive Elements (CRE) small molecule agonists, cell-based qHTS assay: qHTS cell viability counter screen (AID 2060914);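 note: viability read after 3 h of compound exposure; nearly all actives have a fitted effect of over 50% in size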
# setupConditions: CRE-bla HEK293T viability, CellTiter-Glo luminescence, 5 h; series mostly up to 92.4 µM
Inconclusive results are not listed. The source made the active and inactive calls. Calls come from the whole dose curve; as a rule, active = well fitted cell-killing curve with a large enough effect in the repeat runs; inconclusive = weak or mixed curves, or effect the other way; inactive = flat fitted curve, though single readings scatter.
assayReadout: outcome

molecule | measurement
CC(c1ccccc1)(c1ccc(O)cc1)c1ccc(O)cc1 | inactive
CCCC[N+](=O)[O-] | inactive
[O-][Cl+2]([O-])O | inactive
ClCc1ccccn1 | inactive
O=NN1CCCC1 | inactive
CCC[N+](=O)[O-] | inactive
CCCBr | inactive
CC(C)=CC1C(C(=O)OCc2cccc(Oc3ccccc3)c2)C1(C)C (stereo not given) | inactive
CC(C)(C)NCC(O)c1cc(Cl)c(N)c(Cl)c1 (stereo not given) | inactive
COc1ccc(/C(=C/C(=O)N2CCOCC2)c2ccc(Cl)cc2)cc1OC | inactive
CNC(=O)O/N=C/C(C)(C)S(C)(=O)=O | inactive
CCOC(=O)C(c1c(O)c2ccccc2oc1=O)c1c(O)c2ccccc2oc1=O | inactive
CC1(C)[C@H](/C=C2\CCSC2=O)[C@@H]1C(=O)OCc1coc(Cc2ccccc2)c1 | inactive
CCc1ccc(C2CCNCC2)cc1 | inactive
Nc1ccc(Cl)cc1N | inactive
